- Test method notes: collision cross section (TIMS, N2 drift gas) of the primary ion; higher = larger gas-phase ion size
- Condition description: ionization mode: ESI-; ion species: [M-H]-
Assay endpoint: collision cross section (Å²)

[1] O=C(O)COCCN1CCN(C(c2ccccc2)c2ccc(Cl)cc2)CC1 (centres undefined) [Cetirizine]
[2] c1ccc2c(c1)[nH]c1ccncc12 [5-Carboline]
## Input Could you please tell me which of these two has the higher collision cross section: 1 or 2 ? # respond with the chosen item's label
## Output 1
(1: 195.01 Å², 2: 129.23 Å²)

---

- Test method notes: reversed-phase LC retention time (C18, 15 min MeOH gradient); higher = more hydrophobic / later elution
- Condition description: ionization mode: ESI-; ion species: [M-H]-
Assay endpoint: reversed-phase LC retention time (min)

Here's what some known entries look like.
# Compound, reversed-phase LC retention time [min]
measured = [
    ("COc1cc(C[C@H]2COC(=O)[C@@H]2Cc2ccc(O)c(OC)c2)ccc1O", 11.6),
    ("COc1ccc2c(c1)[nH]c1c(C)nccc12", 13.5),
    ("CC(c1ccc(O)cc1)(c1ccc(O)cc1)c1ccc(O)cc1 [1,1,1-Tris(4-hydroxyphenyl)ethane]", 12.4),
    ("Cc1cccc(C)c1N(Cn1cccn1)C(=O)CS(=O)(=O)O", 9.35),
    ("O=[PH]1Oc2ccccc2-c2ccccc21 (centres undefined) [3,4,5,6-Dibenzo-1,2-oxaphosphane-2-oxide]", 8.76),
    ("CCc1cccc(C)c1N(C(=O)C(=O)O)C(C)COC (centres undefined)", 11.9),
    ("O=C(O)CCCCCCCC(=O)O", 0.98),
    ("Oc1cc(Cl)ccc1Oc1ccc(Cl)cc1Cl", 16.8),
    ("O=C1Nc2ccc(Cl)cc2C(c2ccccc2)=NC1O (centres undefined)", 13.4),
    ("O=C(O)C(F)(F)C(F)(F)C(F)(F)C(F)(F)C(F)(F)C(F)(F)F", 13.8),
]

[1] NS(=O)(=O)c1cc(C(=O)O)c(NCc2ccco2)cc1Cl [Furosemide]
[2] O=S(=O)(O)NC1CCCCC1 [Cyclamate]
## Input Hey, which is lower on measured reversed-phase LC retention time, 1 or 2 ? API: response body contains the label of the selected item.
## Output 2
(2: 6.16 min, 1: 9.47 min)

---

- Test method notes: reversed-phase LC retention time (C18, 15 min MeOH gradient); higher = more hydrophobic / later elution
- Condition description: ionization mode: ESI+; ion species: [M+H]+
Assay endpoint: reversed-phase LC retention time (min)

# Compound, Value observed
measured = [
    ("CO/C=C(/C(=O)OC)c1ccccc1COc1cccc(C(F)(F)F)n1", 15.2),
    ("COc1cnc(OC)n2nc(NS(=O)(=O)c3c(OCC(F)F)cccc3C(F)(F)F)nc12", 12.3),
    ("CCCCOC(=O)CCCCCCCCC(=O)OCCCC [Dibutyl sebacate]", 18),
]

[a] Cc1cccc(C)c1NC(=O)CS(=O)(=O)O
[b] CCCCCCCCCCCCCCCCCCN
[c] CC(C)(C#N)c1cc(Cn2cncn2)cc(C(C)(C)C#N)c1
[d] Nc1nc2c(ncn2COCCO)c(=O)[nH]1
## Input # rank_down: sort by reversed-phase LC retention time, max first Would you mind listing the labels in the order requested?
## Output b, c, a, d
